# System: CD46 expression
# assay text: CD46 expression by RNA-sequencing in unpaired pre-treatment and post-treatment tumor biopsies
# Format: in vivo, human
# applied conditions: Head and Neck Squamous Cell Carcinoma; post- vs pre-treatment unpaired biopsies
Kindly state CD46 expression Percentage change for each of the entries shown.
Kindly provide the numeric value in % only, without the unit symbol.

Name the recorded CD46 expression Percentage change for CC(=O)O[C@H]1C(=O)[C@@]2(C)[C@H]([C@H](OC(=O)c3ccccc3)[C@]3(O)C[C@H](OC(=O)[C@H](O)[C@@H](NC(=O)c4ccccc4)c4ccccc4)C(C)=C1C3(C)C)[C@]1(OC(C)=O)CO[C@@H]1C[C@@H]2O [paclitaxel] .
2.4

Name the recorded CD46 expression Percentage change for N.N.[Cl][Pt][Cl] [cisplatin] .
2.4

Name the recorded CD46 expression Percentage change for O=c1[nH]cc(F)c(=O)[nH]1 [fluorouracil] .
0.6

Name the recorded CD46 expression Percentage change for N.N.O=C([O-])C1(C(=O)[O-])CCC1.[Pt+2] [carboplatin] .
2.0

----------
# System: CD46 expression
# assay text: CD46 expression by RNA-sequencing in unpaired pre-treatment and post-treatment tumor biopsies
# Format: in vivo, human
# applied conditions: Breast Cancer; post- vs pre-treatment unpaired biopsies
property: CD46 expression Percentage change (%)
Kindly provide the numeric value in % only, without the unit symbol.

Name the recorded CD46 expression Percentage change for "O=c1[nH]cc(F)c(=O)[nH]1" .
1.0

Name the recorded CD46 expression Percentage change for O=P1(N(CCCl)CCCl)NCCCO1 (stereo not shown) [cyclophosphamide] .
−0.4

Name the recorded CD46 expression Percentage change for "Nc1ccn([C@@H]2O[C@H](CO)[C@@H](O)C2(F)F)c(=O)n1" .
0.3

Name the recorded CD46 expression Percentage change for "C=C1C[C@@H]2[C@H](CC[C@]3(C)C(=O)CC[C@@H]23)[C@@]2(C)C=CC(=O)C=C12" .
1.8

Name the recorded CD46 expression Percentage change for "N.N.O=C([O-])C1(C(=O)[O-])CCC1.[Pt+2]" .
−1.1

Name the recorded CD46 expression Percentage change for "COc1cccc2c1C(=O)c1c(O)c3c(c(O)c1C2=O)C[C@@](O)(C(=O)CO)C[C@@H]3O[C@H]1C[C@H](N)[C@H](O)[C@H](C)O1" .
−0.3

Name the recorded CD46 expression Percentage change for "CCC1=C[C@@H]2CN(C1)Cc1c([nH]c3ccccc13)[C@@](C(=O)OC)(c1cc3c(cc1OC)N(C)[C@H]1[C@@](O)(C(=O)OC)[C@H](OC(C)=O)[C@]4(CC)C=CCN5CC[C@]31[C@@H]54)C2" .
−2.0

Name the recorded CD46 expression Percentage change for "N#Cc1ccc(C(c2ccc(C#N)cc2)n2cncn2)cc1" .
−0.6

Name the recorded CD46 expression Percentage change for "O=P(O)(O)C(O)(Cn1ccnc1)P(=O)(O)O" .
6.4

Name the recorded CD46 expression Percentage change for "CC(=O)c1c(C)c2cnc(Nc3ccc(N4CCNCC4)cn3)nc2n(C2CCCC2)c1=O" .
0.2

Name the recorded CD46 expression Percentage change for "CS(=O)(=O)CCNCc1ccc(-c2ccc3ncnc(Nc4ccc(OCc5cccc(F)c5)c(Cl)c4)c3c2)o1" .
−1.2

Name the recorded CD46 expression Percentage change for "C=C1C[C@@H]2CC[C@@]34C[C@H]5O[C@H]6[C@@H](O3)[C@H]3O[C@H](CC[C@@H]3O[C@H]6[C@H]5O4)CC(=O)C[C@@H]3[C@@H](OC)[C@@H](C[C@H](O)CN)O[C@H]3C[C@H]3O[C@@H](CC[C@@H]1O2)C[C@@H](C)C3=C" .
1.8

Name the recorded CD46 expression Percentage change for "C[C@@H]1C[C@H]2[C@@H]3CCC4=CC(=O)C=C[C@]4(C)[C@@]3(F)[C@@H](O)C[C@]2(C)[C@@]1(O)C(=O)CO" .
−1.1

Name the recorded CD46 expression Percentage change for "CO[C@H]1C[C@@H]2CC[C@@H](C)[C@@](O)(O2)C(=O)C(=O)N2CCCC[C@H]2C(=O)O[C@H]([C@H](C)C[C@@H]2CC[C@@H](OCCO)[C@H](OC)C2)CC(=O)[C@H](C)/C=C(\C)[C@@H](O)[C@@H](OC)C(=O)[C@H](C)C[C@H](C)/C=C/C=C/C=C/1C" .
1.4

Name the recorded CD46 expression Percentage change for CN(Cc1cnc2nc(N)nc(N)c2n1)c1ccc(C(=O)N[C@@H](CCC(=O)O)C(=O)O)cc1 [methotrexate] .
1.2

Name the recorded CD46 expression Percentage change for "CC/C(=C(\c1ccccc1)c1ccc(OCCN(C)C)cc1)c1ccccc1" .
1.8

----------
# Test system: CD46 expression
# assay text: CD46 expression by RNA-sequencing in paired tumor biopsies before and after therapy;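 also: FFPE human tumor biopsies, exome-capture RNA-seq, reads aligned to GRCh37, counts normalized for GC content, length and depth, summed per gene, log2-transformed, samples paired before versus after therapy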
# applied conditions: Colorectal Cancer; paired biopsies; RNA-seq log2-transformed counts
Kindly state CD46 expression, Post-Treatment Biopsy for each of the entries shown.
Enter the number alone.

Name the recorded CD46 expression, Post-Treatment Biopsy for O=c1[nH]cc(F)c(=O)[nH]1 [fluorouracil] .
6.27

Name the recorded CD46 expression, Post-Treatment Biopsy for C[C@@H]1C[C@H]2[C@@H]3CCC4=CC(=O)C=C[C@]4(C)[C@@]3(F)[C@@H](O)C[C@]2(C)[C@@]1(O)C(=O)CO [dexamethasone] .
5.96

Name the recorded CD46 expression, Post-Treatment Biopsy for CCc1c2c(nc3ccc(OC(=O)N4CCC(N5CCCCC5)CC4)cc13)-c1cc3c(c(=O)n1C2)COC(=O)[C@]3(O)CC [irinotecan] .
6.48

Name the recorded CD46 expression, Post-Treatment Biopsy for Nc1nc2c(c(=O)[nH]1)N(C=O)C(CNc1ccc(C(=O)N[C@@H](CCC(=O)O)C(=O)O)cc1)CN2 (stereo partly shown) [leucovorin] .
6.30

----------
# System: CD46 expression
# assay text: CD46 expression by RNA-sequencing in unpaired pre-treatment and post-treatment tumor biopsies
# Type: in vivo, human
# applied conditions: Non-Small Cell Lung Cancer; post- vs pre-treatment unpaired biopsies
property: CD46 expression Percentage change (%)
Kindly provide the numeric value in % only, without the unit symbol.

Name the recorded CD46 expression Percentage change for "Nc1ccn([C@@H]2O[C@H](CO)[C@@H](O)C2(F)F)c(=O)n1" .
1.7

Name the recorded CD46 expression Percentage change for "CCc1cc2c(cc1N1CCC(N3CCOCC3)CC1)C(C)(C)c1[nH]c3cc(C#N)ccc3c1C2=O" .
−0.5

Name the recorded CD46 expression Percentage change for "CN(C)C/C=C/C(=O)Nc1cc2c(Nc3ccc(F)c(Cl)c3)ncnc2cc1O[C@H]1CCOC1" .
1.7

Name the recorded CD46 expression Percentage change for "C[C@@H](Oc1cc(-c2cnn(C3CCNCC3)c2)cnc1N)c1c(Cl)ccc(F)c1Cl" .
2.7

Name the recorded CD46 expression Percentage change for "CC(=O)O[C@H]1C(=O)[C@@]2(C)[C@H]([C@H](OC(=O)c3ccccc3)[C@]3(O)C[C@H](OC(=O)[C@H](O)[C@@H](NC(=O)c4ccccc4)c4ccccc4)C(C)=C1C3(C)C)[C@]1(OC(C)=O)CO[C@@H]1C[C@@H]2O" .
−1.1

Name the recorded CD46 expression Percentage change for "C[C@]12C=CC(=O)C=C1CC[C@@H]1[C@@H]2C(=O)C[C@@]2(C)[C@H]1CC[C@]2(O)C(=O)CO" .
0.3

Name the recorded CD46 expression Percentage change for "CN(C)C(=N)N=C(N)N" .
0.5
